B1: TPR 5TU (parent)
chain: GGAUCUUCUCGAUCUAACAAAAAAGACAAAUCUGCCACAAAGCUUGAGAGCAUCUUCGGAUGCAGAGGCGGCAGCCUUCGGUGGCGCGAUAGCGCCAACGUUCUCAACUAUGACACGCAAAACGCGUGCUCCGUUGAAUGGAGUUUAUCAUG

# Variants of: B1
# Assay protocol: polymerase ribozyme fitness, log enrichment relative to wild type (log ratio); higher = more active; in vitro selection for triplet polymerase activity
This sample holds only a part of the variants without activity.
If the reported polymerase ribozyme fitness (log ratio) equals or exceeds -3, assign MET. If not, assign NOT MET.

Some solved entries appear below for comparison.
# Mutation name, Cat
data = [
    ("U6A A30C G58C A60U C76G A106U C149G", "NOT MET"),
    ("G59A A89U", "MET"),
    ("U55A G140U", "MET"),
]

Determine whether this variant has polymerase ribozyme fitness (log ratio) no lower than -3: A115U G126A
NOT MET

Could you tell me if the measured polymerase ribozyme fitness (log ratio) of G42A G58U A64G G68U G92C C95U C129U U134C reaches -3 or more?
NOT MET

Is it the case that C95G C96G has polymerase ribozyme fitness (log ratio) reaching or exceeding -3?
MET
